Data origin: patent US11198713B2

assay-target: T1, full-length beta-catenin (UniProt P35222 2-781, limits assumed)
T1 construct: mature; also called full-length ß-Catenin; β-catenin
T1 sequence (looked up): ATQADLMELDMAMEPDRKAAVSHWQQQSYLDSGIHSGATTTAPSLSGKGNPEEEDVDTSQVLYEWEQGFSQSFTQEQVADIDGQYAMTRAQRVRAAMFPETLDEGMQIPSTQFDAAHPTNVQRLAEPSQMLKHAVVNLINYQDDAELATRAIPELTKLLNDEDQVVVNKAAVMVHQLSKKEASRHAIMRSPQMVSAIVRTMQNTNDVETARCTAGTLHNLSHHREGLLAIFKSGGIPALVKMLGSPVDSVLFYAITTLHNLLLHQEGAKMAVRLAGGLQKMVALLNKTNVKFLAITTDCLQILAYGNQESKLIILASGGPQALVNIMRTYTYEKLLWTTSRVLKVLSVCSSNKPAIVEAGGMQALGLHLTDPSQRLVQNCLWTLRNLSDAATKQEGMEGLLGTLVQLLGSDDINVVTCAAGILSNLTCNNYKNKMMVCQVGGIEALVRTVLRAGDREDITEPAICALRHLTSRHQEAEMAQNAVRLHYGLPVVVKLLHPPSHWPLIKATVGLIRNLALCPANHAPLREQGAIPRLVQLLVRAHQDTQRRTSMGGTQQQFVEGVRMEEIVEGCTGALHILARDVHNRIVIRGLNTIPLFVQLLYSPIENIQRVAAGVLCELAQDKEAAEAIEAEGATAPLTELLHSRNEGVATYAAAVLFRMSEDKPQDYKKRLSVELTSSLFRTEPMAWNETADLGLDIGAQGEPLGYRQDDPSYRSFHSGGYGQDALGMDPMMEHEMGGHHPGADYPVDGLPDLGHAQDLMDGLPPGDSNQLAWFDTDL
experiment: competition FP
Numbered stars: 1 amine (or outer) side, 2 acyl side, 3 side chain; on linkers, the order of the positions; unused ones are H or OH. Bridge positions count the residues as written; N and C are the ends. Square brackets hold non-standard residues; d marks the D form. MI = Monomer I = ReN, acyclic amine-bearing olefin stapling residue; R7 = (R)-2-(6-heptenyl)alanine, C=CCCCCC[C@@](C)(N[*:1])C(=O)[*:2]; R4 = (R)-2-(3-butenyl)alanine, C=CCC[C@@](C)(N[*:1])C(=O)[*:2]; MA = Monomer A (Az), N-Alloc azetidine stapling residue; R5 = C=CCCC[C@@](C)(N)C(=O)O; S5 = C=CCCC[C@](C)(N)C(=O)O
measurement-label: EC50 (nM)

Ac-PQ[R4]ILD[MC]HVRRVWR-NH2 (staple 3-7, also called R4/PR) [FP0765c]	30
Ac-PQ[MF]ILD[S5]HVRRVWR-NH2 (staple 3-7; also: carbamate staple (-N(R')-C(O)-O-) by ring-closing olefin metathesis) [FP0779c]	1300
Ac-PQ[MA]ILD[R7]HVRRVWR-NH2 (staple 3-7) [FP0727c]	520

a. Ac-PQ[R5]ILD[MI]HVRRVWR-NH2 (staple 3-7; also: carbamate staple (-N(R')-C(O)-O-) by ring-closing olefin metathesis) [FP0777c]
b. Ac-PQ[MH]ILD[S5]HVRRVWR-NH2 (staple 3-7; also: carbamate staple (-N(R')-C(O)-O-) by ring-closing olefin metathesis) [FP0780c]
c. Ac-PQ[MI]ILD[R5]HVRRVWR-NH2 (staple 3-7; also: carbamate staple (-N(R')-C(O)-O-) by ring-closing olefin metathesis) [FP0783c]
Exercise: Let's sort these by EC50, smallest first. Go ahead? Order the labels as requested and list them.
Solution: a, c, b
